Catalogue of max response readings, one per entry.
assay: qHTS Assay for Identifying Gametocytocidal Compounds (AID 743244);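 further: on the % scale 0 is the no-effect control and ±100 the full control effect; actives lower the fluorescent signal which means gametocytes are killed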; settings: P. falciparum 3D7 stage III-V gametocytes, alamarBlue, 72 h; stronger effect = lower value
Inconclusive results are not listed.
Write the value in % as a bare number.

Kindly indicate its recorded max response. Item: "Cn1c(=O)c2c(ncn2CC2OCCO2)n(C)c1=O"
2.6

Kindly indicate its recorded max response. Item: "CC1(C)CO[C@@H](CC(=O)O)CN1"
28.1

Kindly indicate its recorded max response. Item: "CCOC(=O)c1ccc(O)cc1"
10.3

###

experiment: Primary qHTS for inhibitors of nuclear receptor binding SET domain protein 2 (NSD2) in an isogenic RCH-ACV NSD2 p.E1099K mutant (9B) (AID 1645876); conditions: RCH-ACV (leukaemia line) NSD2 E1099K (9B) viability, CellTiter-Glo, 72 h; series mostly up to 44.9 µM; further: nearly all actives have a fitted effect of over 70% in size
Records with an inconclusive call do not appear. Active and inactive are the calls of the source. The call rests on the fitted dose curve; in most records, active means well fitted inhibition curve with a large enough effect; inconclusive means small, poorly fitted or top-dose-only effect; inactive means flat fitted curve, though single readings scatter.
Pick one and only one: y for active, n for inactive

compound=CC1(C)OC(=O)NC1=O qualitative_label=n
compound=OCCN1CCN(CCCN2c3ccccc3Sc3ccc(Cl)cc32)CC1 qualitative_label=y
compound=CCN(CC)CCOC(=O)C1(C2CCCCC2)CCCCC1 qualitative_label=n
compound=O=C(O)CN1C(=O)c2cccc3cccc(c23)C1=O qualitative_label=n
compound=Nc1nc2c(ncn2CCC(CO)CO)c(=O)[nH]1 qualitative_label=n

// return assay outcome for "CCCCN1CCCC[C@H]1C(=O)Nc1c(C)cccc1C"
n

// return assay outcome for "O=S(=O)(O)c1cc(I)c(O)c2ncccc12"
n

// return assay outcome for "NC(=O)NC(=O)Cc1ccccc1"
n

// return assay outcome for "C[C@]12CC[C@@H]3c4ccc(O)cc4CC[C@H]3[C@@H]1CC[C@@H]2OC(=O)CCC1CCCC1"
n

// return assay outcome for "C=CCn1c(=O)n([C@@H]2O[C@H](CO)[C@@H](O)[C@H]2O)c2nc(N)[nH]c(=O)c21"
n

// return assay outcome for "CC12CCC(CC1)C(C)(C)O2"
n

// return assay outcome for "Cc1cccc(Nc2cc(Cl)nc(SCC(=O)O)n2)c1C"
n

// return assay outcome for "Nc1ccc(S(=O)(=O)NC(=O)c2ccccc2)cc1"
n

// return assay outcome for "OC[C@H]1O[C@@H](O[C@@H]2[C@@H](CO)O[C@](O)(CO)[C@H]2O)[C@H](O)[C@@H](O)[C@H]1O"
n

// return assay outcome for "O=S(=O)(O)NC1CCCCC1"
n

// return assay outcome for CSc1ccc2c(c1)C(N1CCN(C)CC1)Cc1ccccc1S2 (stereo unspecified)
y

// return assay outcome for "Cc1ccc2nc(N)[nH]c(=O)c2c1Sc1ccncc1"
y

// return assay outcome for "Cn1c(=O)c2c(ncn2CC2OCCO2)n(C)c1=O"
n

// return assay outcome for "Nc1cc(=O)[nH]c(N)n1"
n

// return assay outcome for "NC1CCN(c2cccc(Cl)n2)CC1"
n

// return assay outcome for "Oc1cccc(O)c1"
n

// return assay outcome for "COc1cc(C(=O)N2CCOCC2)cc(OC)c1OC"
n

// return assay outcome for "CCn1cc(C(=O)O)c(=O)c2cnc(N3CCNCC3)nc21"
n

// return assay outcome for "O=C1NC(=O)[C@@]2(CCOc3ccc(F)cc32)N1"
n

// return assay outcome for "CCOC(=O)c1ccc(O)cc1"
n

// return assay outcome for CN1[C@@H]2CC[C@H]1CC(OC(=O)C(O)c1ccccc1)C2 (stereo partly specified)
n

These entries and their values trace back to PubChem BioAssay (NCATS).
